# Tested on: Thioredoxin-1 (TXN) in B16F10 cells
# assayMethodText: N-terminal chymotryptic fragments of TXN measured by LC/MS in B16F10 cells treated with fumagillin
# Format: cell-based
# conditionNotes: Mus musculus, B16-F10, read-out: EC50 to increase Met-TXN acetylated Met-TXN levels
quantityKind: EC50

>>> experimentalresult("CO[C@@H]1[C@H](OC(=O)/C=C/C=C/C=C/C=C/C(=O)O)CC[C@]2(CO2)[C@H]1[C@@]1(C)O[C@@H]1CC=C(C)C")
"< 10 nM"
